propertyName: melting point

Ask: # melting point lookup, item Brc1ccc2c(c1)CC(N1CCNCC1)c1ccccc1S2 (configuration not stated)
Result: 112 to 115 °C

Ask: # melting point lookup, item CS(=O)(=O)c1ccc(-c2cc(-c3c(-c4ccccn4)nc4ccccn34)ccn2)cc1
Result: 242 to 244 °C

Ask: # melting point lookup, item CC1Cc2c(N3CCCC3CO)c(F)cc3c(=O)c(C(=O)O)cn1c23 (configuration not stated)
Result: 235 to 237 °C

Ask: # melting point lookup, item CCOC(=O)c1cnn(-c2ccc(OC(F)(F)F)cc2)c1N
Result: 102 to 103 °C

Ask: # melting point lookup, item CC(C)(C#N)c1cc(C(Cl)c2cncnc2)cc(C(C)(C)C#N)c1 (configuration not stated)
Result: 118 to 121 °C
